Target: T1, human DLL4 protein (human, UniProt Q9NR61 27-524, limits assumed)
T1 construct: bought protein; construct and tag not described; also called hDLL4
T1 sequence (Q9NR61 27-524 limits assumed): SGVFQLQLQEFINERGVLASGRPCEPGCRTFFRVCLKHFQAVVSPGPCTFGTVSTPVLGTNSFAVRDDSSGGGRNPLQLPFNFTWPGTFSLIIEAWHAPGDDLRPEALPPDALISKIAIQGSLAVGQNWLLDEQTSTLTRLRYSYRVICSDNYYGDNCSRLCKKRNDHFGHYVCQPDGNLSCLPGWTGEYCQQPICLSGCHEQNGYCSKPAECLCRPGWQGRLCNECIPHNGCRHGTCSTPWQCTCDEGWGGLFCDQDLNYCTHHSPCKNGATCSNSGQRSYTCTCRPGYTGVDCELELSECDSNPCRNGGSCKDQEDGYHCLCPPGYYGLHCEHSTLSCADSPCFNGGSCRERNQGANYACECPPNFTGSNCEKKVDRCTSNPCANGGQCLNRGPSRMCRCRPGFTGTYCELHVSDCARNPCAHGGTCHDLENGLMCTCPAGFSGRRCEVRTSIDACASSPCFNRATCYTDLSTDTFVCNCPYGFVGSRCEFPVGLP
Experiment: ELISA, maximum over 0.1-100 nM
The following binders are listed with their measured Emax of OD450 nm binding value values.
All answers are understood in OD450, so give the number only.

Field Emax of OD450 nm binding value (entry mab014 scFv-hFc (Fc fusion, human-murine chimeric scFv-hFc, VL-linker-VH-human IgG1 Fc; not shown: linker; Fc fragment of human IgG1) scFv (part 1 of 2): DIQMTQSSSSFSVSLGDRVTITCKASEDIYNRLAWYQQKPGNTPRLLISGATSLETGVPSRFSGSGSGKDFTLSITSLQTEDVATYYCQQYWSLPWTFGGGTKLEIK scFv (part 2 of 2): EVQLHQSGPELVKPGTSVKISCKASGYTFTDYYMNWVKQSHGKSLEWIGDINPNHGDTGYNQKFTGKATLTVDKSSSTAYMELRSLTSEDSAVYYCARNFFYYGTTYGWYFDVWGTGTTVTVSS ) reads 0.06

The binder identified as mab004 scFv-hFc (Fc fusion, human-murine chimeric scFv-hFc, VL-linker-VH-human IgG1 Fc; not shown: linker; Fc fragment of human IgG1) scFv (part 1 of 2): DIVLTQSPASLAVSLGQRATISCRASESVDYDGDSYMNWYQQKPGQPPKLLIYVASNLESGIPARFSGSGSGTDFILNIHPVEEEDAATYYCLQSNEAPYTFGSGTKLEIK scFv (part 2 of 2): QVQLQQPGAELVKPGASVKLSCKASGYTFTSYWINWVKQRPGQGLEWIGNIYPGSSSPNYNEKFKSKATLTVDTSSSTAYMQLSSLTSDDSAVYYCARSLLYAMDYWGQGTSVTVSS registered its Emax of OD450 nm binding value at 0.04

Sample mab016 scFv-hFc (Fc fusion, human-murine chimeric scFv-hFc, VL-linker-VH-human IgG1 Fc; not shown: linker; Fc fragment of human IgG1) scFv (part 1 of 2): DIVMTQSQKFMSTTIGDRVSITCKASQNVGTTVAWYQQKPGQSPNLLLYSTSNRFTGVPDRFTGSGSGTDFTLTITNMQSEDLADYFCQQYNNYPLTFGGGTKLEIK scFv (part 2 of 2): EVNLEESGGGLVQPGGSMKLSCVASGFAFSNFWMQWVRQSPEKGLEWVAQIRLKSDNYAAHYAESVKGRFTISRDDSKSSVYLQLNNLRAEDTGTYYCTQGNWVGFAYWGQGTLVTVSA ; Emax of OD450 nm binding value observed: 0.04

Input mab005 scFv-hFc (Fc fusion, human-murine chimeric scFv-hFc, VL-linker-VH-human IgG1 Fc; not shown: linker; Fc fragment of human IgG1) scFv (part 1 of 2): DIVLTQSPATLSVTPGDSVSLSCRASQSVSNDLHWYQQKSHESPRLLIKYASQSISGIPSRFSGSGSGTDFTLTINSVETEDFGMYFCQQSNNWPYTFGGGTKLEMK scFv (part 2 of 2): QVQLQQSGAELMKPGASVTLSCKATGYTLPGYWIEWVKQRPGHGLEWIGEILPGSSSANYNEKFKGKATFTADTSSNTAYMQLSSLTTEDSAIYYCASTYGTSLDYWGQGTTLTVSS . Output Emax of OD450 nm binding value: 0.04

// switching to the query binder
mab002 scFv-hFc (Fc fusion, human-murine chimeric scFv-hFc, VL-linker-VH-human IgG1 Fc; not shown: linker; Fc fragment of human IgG1) scFv (part 1 of 2): QIVLTQSPAIMSASPGEKVTMTCSARSSVSYMQWYQQKSGTSPKRWIYDTSKLASGVPARFSGSGSGTSYSLTISTMEAEDAATYYCQQWSSDPPTFGGGTKLEIK scFv (part 2 of 2): QIQLVQSGPELKKPGETVKISCKASGYTFTNYGMNWLKQAPGKGLKWMGWINTYTGESTYADDFKGRFAFSLETSASTVYLQINNLKNEDMATYFCARMGDGYYDFTMDYWGQGTSVTVSS has a reported Emax of OD450 nm binding value of 0.05
